Value source: patent US5744452A

Documented interleukin-2 production by murine spleen cells across a set of compounds
Tested on: murine spleen cells
protocol: IL-2 production by Concanavalin A activated murine spleen cells (CTLL-2 cell assay)
Type: cell-based, CBA mice
run.parameters: Table 6; peptide 0.1 μg/ml
Method: Spleen cells from CBA mice were cultured in tissue culture plates at a 10^6 cells/ml in RPMI-1640 medium supplemented with 10% fetal calf serum, 2 mM L-glutamine, and 80 μg/ml of Gentamycin. […] After 36 hours supernatants were collected, centrifuged at 800 xg and IL-2 levels were measured in a CTLL-2 cell assay (Gillis et al., "T-cell Growth Factor: Parameters of Production and Quantitative Assay for Activity," J. Immunol., 120: 2027-2032, 1978). […]
Where a SMILES comes first, the peptide text is derived from it.
Could you respond with only the numeric value?

The examples below pair each entry with its known result.
[
  {
    "compound": "CC(=O)N[C@@H](CCC(=O)N[C@@H](Cc1c[nH]c2ccccc12)C(=O)O)C(=O)O",
    "experimental.system": "murine spleen cells",
    "measured.value": 149
  },
  {
    "compound": "CN[C@@H](CCC(=O)N[C@@H](Cc1c[nH]c2ccccc12)C(=O)O)C(=O)O",
    "experimental.system": "murine spleen cells",
    "measured.value": 152
  },
  {
    "compound": "N[C@@H](CCC(=O)N[C@@H](Cc1c[nH]c2ccccc12)C(=O)O)C(=O)O",
    "experimental.system": "murine spleen cells",
    "measured.value": 172
  },
  {
    "compound": "N[C@@H](CCC(=O)N[C@@H](Cc1cn(C=O)c2ccccc12)C(=O)O)C(=O)O",
    "experimental.system": "murine spleen cells",
    "measured.value": 153
  }
]

Write down measured interleukin-2 production by murine spleen cells (murine spleen cells) for this compound. N[C@@H](CCC(=O)O)C(=O)N[C@@H](Cc1c[nH]c2ccccc12)C(=O)O [Thymogen, L-glutamyl-L-tryptophan, reference compound] (H-Glu-Trp-OH)
118

---

System: murine bone marrow cells
protocol: .THETA.-antigen expression on murine bone marrow cells (T-lymphocyte precursor differentiation)
Type: cell-based, CBA strain mice
run.parameters: Table 5; peptide 10 μg/ml
Where a SMILES comes first, the peptide text is derived from it.
Entries whose Percent of murine bone marrow cells expressing .THETA.-antigen is below 50% take true (1); entries at or above 50% take false (0).

Here's what some known entries look like.
[
  {
    "molecule": "CC(=O)N[C@@H](CCC(=O)N[C@@H](Cc1c[nH]c2ccccc12)C(=O)O)C(=O)O",
    "label.class": "true (1)"
  },
  {
    "molecule": "N[C@@H](CCC(=O)N[C@@H](Cc1cn(C=O)c2ccccc12)C(=O)O)C(=O)O",
    "label.class": "true (1)"
  },
  {
    "molecule": "N[C@@H](CCC(=O)N[C@@H](Cc1c[nH]c2ccccc12)C(=O)O)C(=O)O",
    "label.class": "false (0)"
  }
]

Turning now to a further record.
State whether 50% exceeds Percent of murine bone marrow cells expressing .THETA.-antigen recorded for N[C@@H](CCC(=O)O)C(=O)N[C@@H](Cc1c[nH]c2ccccc12)C(=O)O [Thymogen, L-glutamyl-L-tryptophan, reference compound] (H-Glu-Trp-OH) .
true (1)
